- METHOD SUMMARY: Maximal plasma concentration in squirrel monkeys
- Format: ADME, organism-based
READOUT KIND: Cmax

Cmax recorded for this compound, CC(O)(c1ccccc1)c1ccc(C(Cc2cc[n+]([O-])cc2)c2ccc(OC(F)F)c(OC(F)F)c2)cn1 (single isomer, unassigned; diastereomer 1) , is 2200 nM

---

- METHOD SUMMARY: Half life period was determined in rat after iv administration at a dose of 5 mg/kg
- Assay type: ADME, organism-based
- Parameters: dose 5 mg/kg, route intravenous
- MEASUREMENT CONDITIONS: in vivo
READOUT KIND: half-life (h)
Give the number; h is assumed, so skip it.

half-life recorded for this compound, CC(O)(c1ccccc1)c1ccc(C(Cc2cc[n+]([O-])cc2)c2ccc(OC(F)F)c(OC(F)F)c2)cn1 (single isomer, unassigned; diastereomer 1) , is 1.5
